Tested on: U-251
Assay: NCI tumour cell line growth inhibition, 48 h
Active and inactive are the calls of the source. No stated cut-off is given here; in the data, active = GI50 up to about 1.1 µM and inactive = higher.
Each entry below carries its reported GI50.

Recorded GI50, per entry:
1. CCCCC1Cc2cc(O)ccc2-c2n1c1cc(O)ccc1[n+]2C.CCCCC1Cc2cc(O)ccc2-c2n1c1ccc(O)cc1[n+]2C (stereo not given) = 1.1 µM (active)
2. O=[N+]([O-])c1ccc(C2=NN(c3ccccc3)C[N+](c3ccc(Br)cc3)=N2)cc1 = 71.3 µM (inactive)
3. COC(=O)CCC(C)C1CCC2C3CCC4CC5CCC4(C)C3(O5)C(Br)C(Br)C12C (stereo not given) = > 100 µM (inactive)
4. COc1cc(C2SCC(=O)N2c2ccc(-c3ccc(-n4c(-c5ccccc5)nc5ccccc5c4=O)cc3)cc2)cc(OC)c1OC (stereo not given) = 22.2 µM (inactive)

Reported GI50 for COc1ccc(C[C@@H](C(=O)O[C@H](C)[C@H](NC(=O)[C@@H](CC(C)C)N(C)C(=O)C2CCCN2C(=O)[C@H](C)O)C(=O)N2CCCCNC(=O)[C@@H](C)C(=O)[C@H](C(C)C)OC(=O)C[C@H](O)[C@H]2CC(C)C)N(C)C(C)=O)cc1 (stereo not given in full) was 3.1 µM (inactive)

GI50 for C=C=C(C(=O)OC)[S+]([O-])c1ccc([N+](=O)[O-])cc1[N+](=O)[O-] (stereo not given) is 38.1 µM (inactive)

GI50 reading for CCN1C(Cl)=NS(=O)(=O)c2ccccc21 : 62.1 µM (inactive)

Entry CC1CCC2N(C1)CC1C3(O)CC45OC6(O)C(O)CCC4(C)C6CCC5C3(O)CC(O)C1(O)C2(C)O (stereo not given) — recorded GI50 = > 100 µM (inactive)

Please fill in: GI50 reported for O=C1/C(=C(\Nc2ccccc2)c2ccccc2)C=NN1c1ccccc1 = > 100 µM (inactive)

----------
Entries and their GI50
System: CAKI-1
Test: NCI tumour cell line growth inhibition, 48 h
The source made the active and inactive calls. No stated cut-off is given here; in the data, active = GI50 up to about 1.1 µM and inactive = higher.

1. OCCCNc1ccnc2cc(Cl)ccc12 = > 100 µM (inactive)
2. CCCS(=O)OC1C(C2COC(C)(C)O2)OC2OC(C)(C)OC21 (configuration not stated) = 11.6 µM (inactive)
3. COc1ccc2c(c1)CCc1c-2n(CCN2CCOCC2)c2ccc(OC)cc12 = > 100 µM (inactive)

Sample CCOC(=O)c1c(SC(=O)c2ccc(OC)cc2)n(-c2ccccc2)c(=S)n(-c2ccccc2)c1=O ; GI50 observed: > 100 µM (inactive)

response.value for CCc1nc(N)nc(N)c1-c1ccc([N+](=O)[O-])c(NCc2ccccc2)c1 (field: GI50) = 13.7 µM (inactive)

Record CCOC(=O)C1=C(C)N(Cc2ccccc2)C2(O)C(OC)CC(=O)C3C(=O)N(c4ccccc4)C(=O)C132 (configuration not stated) . Reported GI50: 17 µM (inactive)

For O=C(NCc1cccnc1)C1COc2cc(-c3cc(=O)c4ccccc4o3)ccc2O1 (configuration not stated) the molecule record lists GI50 as > 63.7 µM (inactive)

Memo: N#Cc1c(N)nc2c3c1NC(=O)C(C(N)=O)C3c1ccccc1O2 (configuration not stated) , reported GI50: > 100 µM (inactive)

GI50 recorded for this molecule, CCN1CCC(O)(c2ccc(C)cc2)C(C(=O)c2ccc(C)cc2)C1 (configuration not stated) , is 17.2 µM (inactive)

The molecule identified as CN1C(=O)N(C)C2(O)c3ccccc3C(=O)C12O (configuration not stated) registered its GI50 at > 100 µM (inactive)

The molecule listed as FC(F)(F)c1ccc(C2ON=C(c3ccccc3)N2C23CC4CC(CC(C4)C2)C3)cc1 (configuration not stated) has a reported GI50 of > 10 µM (inactive)

response.value for COc1cc2c(cc1OC)[C@H]1C(=O)c3cc4c(cc3[C@H]1N(C)C2=O)OCO4 (field: GI50) = 3.13 µM (inactive)

// GI50 value for N#CC(c1ccccc1)N(CCc1ccccc1)C(=O)c1ccc(C(=O)N(CCc2ccccc2)C(C#N)c2ccccc2)cc1 (configuration not stated) : 30.6 µM (inactive)

The origin of these recorded values is ChEMBL document CHEMBL1201862.
